Tm values for the molecules below.
Tested on: Nucleic Acid
Assay: Binding affinity to calf thymus DNA assessed as temperature required to cause 50% of DNA denatured at 10 uM by thermal denaturation assay
Assay type: nucleic-acid assay
Details: Bos taurus
Give the value, in units of °C, as a plain number.

INSERT INTO measurements (molecule, unit_string, value_observed) VALUES
  ('CN1CCN(c2ccc3[nH]c(-c4ccc5[nH]c(-c6ccc(O)cc6)nc5c4)nc3c2)CC1', '°C', 78.8),
  ('COc1cccc2c1C(=O)c1c(O)c3c(c(O)c1C2=O)C[C@@](O)(C(=O)CO)C[C@@H]3O[C@H]1C[C@H](N)[C@H](O)[C@H](C)O1', '°C', 86.4),
  ('NCCCN1C(=O)c2cccc3cccc(c23)C1=O', '°C', 66.3),
  ('O=C1c2cccc3cccc(c23)C(=O)N1CCCNCCCCNCCCN1C(=O)c2cccc3cccc(c23)C1=O', '°C', 89.2),
  ('Br.O=C1c2cccc3cccc(c23)C(=O)N1CCCNCCCCNCCCNCCCN1C(=O)c2cccc3cccc(c23)C1=O', '°C', 91.5);

Per the records, this molecule ( O=C1c2cccc3cccc(c23)C(=O)N1CCCNCCCCCCCCCCCCNCCCN1C(=O)c2cccc3cccc(c23)C1=O ) has Tm equal to 81.2

// field: Tm; key: Br.O=C1c2cccc3cccc(c23)C(=O)N1CCCNCCCCCCCCNCCCN1C(=O)c2cccc3cccc(c23)C1=O ; value = 88.7

For record O=C1c2ccccc2C(=O)N1CCCNCCCCCCCCCCNCCCN1C(=O)c2ccccc2C1=O the listed Tm is 72
